Reference source for all entries: ChEMBL document CHEMBL3885861

Examples of molecules with documented KIDNEY_TOTAL follow.
Organism: Rattus norvegicus
Assay Method Text: Open TG-GATES - Regimen: Daily Repeat
Assay type: toxicity, organism-based, Sprague-Dawley
Design: regimen Daily Repeat, gender Male, age 6 weeks
Conditions Used: in vivo, po, 300 mg/kg, […], tissue Kidney, route gavage, dose level Middle, time 28 day

Molecule	KIDNEY_TOTAL
Cc1nnc2n1-c1ccc(Cl)cc1C(c1ccccc1Cl)=NC2 [TRIAZOLAM]	2.8 g
CCOc1ccc(NC(C)=O)cc1 [PHENACETIN]	2.9 g
CN/C(=N/CCSCc1nc[nH]c1C)NC#N [CIMETIDINE]	2.8 g
O=C(OC[C@H]1O[C@@H](OC(=O)c2cc(O)c(O)c(OC(=O)c3cc(O)c(O)c(O)c3)c2)[C@H](OC(=O)c2cc(O)c(O)c(OC(=O)c3cc(O)c(O)c(O)c3)c2)[C@@H](OC(=O)c2cc(O)c(O)c(OC(=O)c3cc(O)c(O)c(O)c3)c2)[C@@H]1OC(=O)c1cc(O)c(O)c(OC(=O)c2cc(O)c(O)c(O)c2)c1)c1cc(O)c(O)c(OC(=O)c2cc(O)c(O)c(O)c2)c1 [TANNIC ACID]	2.9 g
COC(=O)C1=C(C)NC(C)=C(C(=O)OC)C1c1ccccc1[N+](=O)[O-] [NIFEDIPINE]	2.5 g
CNC(=C[N+](=O)[O-])NCCSCc1ccc(CN(C)C)o1 [RANITIDINE]	2.9 g

* * *

Species: Rattus norvegicus
Assay Method Text: Open TG-GATES - Regimen: Daily Repeat
Type: toxicity, organism-based, Sprague-Dawley
Set-up: regimen Daily Repeat, gender Male, age 6 weeks
Conditions Used: in vivo, po, 0 mg/kg, […], tissue Blood, route gavage, dose level Control, time 7 day
Examples of molecules with documented Ht follow.

Molecule	Ht / %
O=C(OC[C@H]1O[C@@H](OC(=O)c2cc(O)c(O)c(OC(=O)c3cc(O)c(O)c(O)c3)c2)[C@H](OC(=O)c2cc(O)c(O)c(OC(=O)c3cc(O)c(O)c(O)c3)c2)[C@@H](OC(=O)c2cc(O)c(O)c(OC(=O)c3cc(O)c(O)c(O)c3)c2)[C@@H]1OC(=O)c1cc(O)c(O)c(OC(=O)c2cc(O)c(O)c(O)c2)c1)c1cc(O)c(O)c(OC(=O)c2cc(O)c(O)c(O)c2)c1 [TANNIC ACID]	38.2
CC(C)NNC(=O)c1ccncc1 [IPRONIAZID]	37.7
Nc1c2c(nc3ccccc13)CCCC2 [TACRINE]	38.4
Cc1nnc2n1-c1ccc(Cl)cc1C(c1ccccc1Cl)=NC2 [TRIAZOLAM]	40.7
CN1C(=O)CCS(=O)(=O)C1c1ccc(Cl)cc1 (stereo not drawn) [CHLORMEZANONE]	41
Brc1ccccc1 [BROMOBENZENE]	39
COC(=O)C1=C(C)NC(C)=C(C(=O)OC)C1c1ccccc1[N+](=O)[O-] [NIFEDIPINE]	42
CN(C)CCC(c1ccc(Cl)cc1)c1ccccn1 (stereo not drawn) [CHLORPHENIRAMINE]	43.3

* * *

Examples of molecules with documented RBC follow.
Species on record: Rattus norvegicus
Assay Method Text: Open TG-GATES - Regimen: Single
Type: toxicity, organism-based, Sprague-Dawley
Parameters: regimen Single, gender Male, age 6 weeks
Conditions Used: in vivo, po, 300 mg/kg, 24 h, tissue Blood, route gavage, dose level Middle

Substance Smiles	RBC (x10_4/ul)
CN/C(=N/CCSCc1nc[nH]c1C)NC#N	631.2
O=C(OC[C@H]1O[C@@H](OC(=O)c2cc(O)c(O)c(OC(=O)c3cc(O)c(O)c(O)c3)c2)[C@H](OC(=O)c2cc(O)c(O)c(OC(=O)c3cc(O)c(O)c(O)c3)c2)[C@@H](OC(=O)c2cc(O)c(O)c(OC(=O)c3cc(O)c(O)c(O)c3)c2)[C@@H]1OC(=O)c1cc(O)c(O)c(OC(=O)c2cc(O)c(O)c(O)c2)c1)c1cc(O)c(O)c(OC(=O)c2cc(O)c(O)c(O)c2)c1	591.6
COC(=O)C1=C(C)NC(C)=C(C(=O)OC)C1c1ccccc1[N+](=O)[O-]	643.8
CNC(=C[N+](=O)[O-])NCCSCc1ccc(CN(C)C)o1	603.2
Cc1nnc2n1-c1ccc(Cl)cc1C(c1ccccc1Cl)=NC2	643.6
